# protocol text: folding stability dG unfold (combined trypsin and chymotrypsin); higher = more stable
Listing: folding stability dG unfold of selected sequences
Form entry: value (kcal/mol) — number only.

SAGGNPRPIELYFPEGKIEKIQEKLREEDGYDVDIQMEQNPDGWFKINITFQDPQRVMDILEKFGITSAGGS [r16_172_TrROS] | 1.26
SVPPNAPPGMKPKRVEIFIFIPPELYDKDGKISPEQLKKAKGMAKMIKLRLREQYPGYGIDDVKVHIMPGSA [r9_943_TrROS] | 3.14
SAGGSAGGSAGGTPITDEEFRDLPDDVKLVFENGEVAYVPRDPLKVPIGADKTVTAEPVPSAGGSAGGSAGG [r7_643_TrMRF] | 0.801

GET /value?item= SAGGSAGGSKPTLTLEIVLPPEMTLEQLEELARALAEELGLDEVEVRVERRPDGYLRITITVKSAGGSAGGS [r20_208_TrROS_Hall] &field=folding stability dG unfold returns 3.59
